test: qHTS to identify inhibitors of the type 1 interferon - major histocompatibility complex class I in skeletal muscle: tertiary screen by RT-qPCR
details: C25cl48 human myoblasts, IFN-beta, HLA-B RT-qPCR, 24 h; series mostly up to 49.8 µM
Inconclusive results are not listed. The source made the active and inactive calls. Calls come from the whole dose curve; as a rule, active = well fitted inhibition curve with a large enough effect; inconclusive = small, poorly fitted or top-dose-only effect; inactive = no such curve, though single readings can be large or run the other way.
Log the outcome using a class from 1.0 (active), 0.0 (inactive)

C[C@@H]1O[C@@H](O[C@H]2C[C@@H](O)[C@]3(CO)[C@H]4[C@H](O)C[C@]5(C)[C@@H](C6=CC(=O)OC6)CC[C@]5(O)[C@@H]4CC[C@]3(O)C2)[C@H](O)[C@H](O)[C@H]1O	0.0
Cc1[nH]nc2ccc(-c3cncc(OC[C@@H](N)Cc4c[nH]c5ccccc45)c3)cc12	1.0

Q: Hello, I am checking results. What call was entered for C[C@@H]1O[C@@H](O[C@@H]2C=C3CC[C@@H]4[C@H](CC[C@]5(C)[C@@H](c6ccc(=O)oc6)CC[C@]45O)[C@@]3(C)CC2)[C@H](O)[C@H](O)[C@H]1O ?
A: 0.0

Q: State the result this test recorded for CC(C)[C@]12O[C@H]1[C@@H]1O[C@@]13[C@@]1(C)CCC4=C(COC4=O)[C@@H]1C[C@@H]1O[C@@]13C2=O .
A: 0.0

Data origin, for the record: PubChem BioAssay AID1347415
